target: Nuclear receptor coactivator 3 (Homo sapiens) (UniProt Q9Y6Q9); test: SRC3 coactivator transcriptional activity inhibitors, confirmation, cell-based, luminescence, quadruplicate (AID 588792); details: HEK293 GAL4-SRC3 luciferase reporter, at 3.6 µM, hits give high values;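 further: 0% = DMSO treated cells and 100% = gossypol at 36 µM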
Sequence (Q9Y6Q9 whole entry, looked up, the tested form may be a part): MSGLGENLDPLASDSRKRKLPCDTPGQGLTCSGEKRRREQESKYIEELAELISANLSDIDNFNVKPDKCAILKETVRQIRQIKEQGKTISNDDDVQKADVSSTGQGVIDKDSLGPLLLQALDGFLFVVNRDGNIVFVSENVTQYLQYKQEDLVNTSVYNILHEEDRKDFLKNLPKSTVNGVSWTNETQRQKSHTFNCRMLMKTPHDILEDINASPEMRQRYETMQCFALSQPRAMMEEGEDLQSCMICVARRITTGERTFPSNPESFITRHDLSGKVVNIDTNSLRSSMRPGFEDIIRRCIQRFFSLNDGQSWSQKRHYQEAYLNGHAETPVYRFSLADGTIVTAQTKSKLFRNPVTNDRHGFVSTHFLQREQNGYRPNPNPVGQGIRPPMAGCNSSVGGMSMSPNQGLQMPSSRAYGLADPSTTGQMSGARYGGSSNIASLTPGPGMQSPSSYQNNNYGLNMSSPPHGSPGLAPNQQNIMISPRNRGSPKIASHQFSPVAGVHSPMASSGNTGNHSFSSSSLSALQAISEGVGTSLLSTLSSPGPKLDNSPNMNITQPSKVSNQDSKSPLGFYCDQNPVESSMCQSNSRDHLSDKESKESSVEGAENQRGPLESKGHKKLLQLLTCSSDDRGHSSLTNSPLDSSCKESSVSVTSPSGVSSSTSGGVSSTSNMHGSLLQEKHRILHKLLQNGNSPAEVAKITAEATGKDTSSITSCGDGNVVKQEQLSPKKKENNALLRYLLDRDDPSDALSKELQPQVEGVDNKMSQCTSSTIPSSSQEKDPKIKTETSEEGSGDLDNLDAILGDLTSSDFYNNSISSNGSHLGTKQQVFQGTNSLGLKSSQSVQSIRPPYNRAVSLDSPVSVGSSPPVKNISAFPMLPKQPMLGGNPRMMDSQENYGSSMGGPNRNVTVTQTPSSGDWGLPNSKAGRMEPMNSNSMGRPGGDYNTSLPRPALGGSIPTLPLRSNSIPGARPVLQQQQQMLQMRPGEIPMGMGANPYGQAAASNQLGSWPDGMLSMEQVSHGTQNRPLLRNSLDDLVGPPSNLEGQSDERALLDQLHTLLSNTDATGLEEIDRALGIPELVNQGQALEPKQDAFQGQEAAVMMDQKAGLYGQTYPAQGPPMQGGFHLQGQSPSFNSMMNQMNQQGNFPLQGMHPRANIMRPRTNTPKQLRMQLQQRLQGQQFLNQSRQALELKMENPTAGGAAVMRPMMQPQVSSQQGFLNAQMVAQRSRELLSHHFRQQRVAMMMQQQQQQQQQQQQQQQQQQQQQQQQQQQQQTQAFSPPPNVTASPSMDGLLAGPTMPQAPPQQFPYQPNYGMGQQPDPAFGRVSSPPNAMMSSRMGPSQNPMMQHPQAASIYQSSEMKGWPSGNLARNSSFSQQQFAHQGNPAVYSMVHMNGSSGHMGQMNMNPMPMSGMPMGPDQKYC
quantityName: inhibition (%)
Give the quantity in %, number only.

Example cases with answers are listed next.
CC(=O)Nc1ccc(SCC(=O)c2cc(C)n(-c3ccccc3)c2C)cc1 :: 30.3
CN(C)c1ccc(/C=C/c2ccc3c4ccccc4ccc3[n+]2-c2ccccc2)cc1 :: 70.9
NC(=O)c1sc2nc3c(c(-c4ccccc4)c2c1N)CCC3 :: 77.1
COc1cc(N=Cc2c(O)[nH]c3ccccc23)cc(OC)c1OC :: 28.2
COCCn1c(C)cc(C(=O)COc2ccc(C)nc2[N+](=O)[O-])c1C :: 24.8
O=C(NC1CCCC1)C(c1ccncc1)N(Cc1ccccc1)C(=O)Cc1cccs1 (configuration not stated) :: 2.62
CC(C)(C)c1ccc(/C=N/Nc2ccc(C(=O)O)cc2)cc1 :: 28.4
Cc1cc(C(=O)NNc2ccc(F)cc2)no1 :: 9

Tell me reported inhibition for "Cc1ccc(NS(=O)(=O)c2ccc(OCC(=O)NCc3ccncc3)cc2)cc1" , tested with Nuclear receptor coactivator 3 (Homo sapiens) (UniProt Q9Y6Q9). 8.87

Tell me reported inhibition for "Cc1ccc2ccc3ccc(C)nc3c2n1" , tested with Nuclear receptor coactivator 3 (Homo sapiens) (UniProt Q9Y6Q9). 42.1

Tell me reported inhibition for "CC(=NNc1nc2ccccc2o1)c1cc2ccccc2cn1" , tested with Nuclear receptor coactivator 3 (Homo sapiens) (UniProt Q9Y6Q9). 88.8

Tell me reported inhibition for "N#Cc1c(NCc2ccccc2)ccnc1Cl" , tested with Nuclear receptor coactivator 3 (Homo sapiens) (UniProt Q9Y6Q9). 27.5

---

test: growth loss of phage-infected E. coli expressing H. pylori AddAB, confirmation, AddAB inhibitor project, absorbance, E. coli V3065, T4 phage, triplicate (AID 488942); details: OD, at 11.9 µM, hits give high values, T4 phage with gene 2 nonsense mutations;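 further: higher means less bacterial growth since AddAB block lets phage replicate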
The other results are listed elsewhere or left out.
quantityName: inhibition (%)
Give the quantity in %, number only.

Example cases with answers are listed next.
COc1cccc(/C=N/Nc2ncc(C(F)(F)F)cc2Cl)c1O :: 12.9
Cn1ccc(=Nc2ccc(NC(=O)c3ccc(N=c4ccn(C)c5ccc([N+](=O)[O-])cc45)cc3)cc2)cc1 :: 99.9
O=C1CCC(=O)N(O)CCCCCNC(=O)CCC(=O)N(O)CCCCCNC(=O)CCC(=O)N(O)CCCCCN1 :: 31
O=C(OCC(=O)c1cccs1)c1ccc([N+](=O)[O-])o1 :: 73.1

With those in mind, consider the next compound.
Could you share which inhibition value was measured for "Oc1cccc(/C=N/Nc2ccc(Cl)nn2)c1O" ? 42.9

---

assay: StAR promoter reporter inhibitors, counter-screen for LRH-1 inverse agonist project, cell-based, luminescence, high throughput (AID 651611); settings: StAR promoter luciferase reporter counterscreen, at 3.6 µM
Activity calls are given as the source filed them. Cut-off read from the data, not from the text of the source: active = inhibition above about 28%; inactive = the rest.
Allowed answers: true = active, false = inactive

# example entries with known answers
COc1ccc(CCNC(=O)CSc2nc3[nH]c(=O)cc(O)c3s2)cc1 :: false
O=[N+]([O-])c1cccc(-c2ccc3nnc(SCc4cccnc4)n3n2)c1 :: false
Cn1c(CN2CCN(c3cccc(Cl)c3)CC2)nc2ccccc21 :: false

// return assay outcome for O=C1[C@@H]2Cc3c([nH]c4ccccc34)C(c3ccc([N+](=O)[O-])cc3)N2C(=O)CN1C1CC1 (stereo not given in full) true

// return assay outcome for "Cc1ccc(Oc2ccc(OCC(=O)Nc3ccncc3)cc2)cc1" true

---

molecular target: Nuclear receptor subfamily 5 group A member 2 (Homo sapiens); assay: LRH-1 (NR5A2) inverse agonists, retest, confirmation, cell-based, luminescence (AID 651613); conditions: cell-based LRH-1 luciferase reporter, inverse agonism; at 3.6 µM; hits give high values;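 further: HEK293T cells co-transfected with LRH-1 and StAR promoter luciferase reporter; 0% = vehicle wells and 100% = parental cells lacking receptor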
# if value of inhibition reaches 50%, tag MET; if it stays below, tag NOT MET

# example entries with known answers
CCCc1nnc2n1N=C(c1ccc(OC)c(OC)c1)CS2 :: NOT MET
Cc1ccc(Oc2ccc(OCC(=O)Nc3ccncc3)cc2)cc1 :: MET
COc1cc(N)c2ncccc2c1Cl :: NOT MET

Identify whether the reported inhibition of the following compound is 50% or greater: "Cc1cc(C(=O)CSc2ccc(F)cc2)cc(C)c1OC(=S)N(C)C" NOT MET

Identify whether the reported inhibition of the following compound is 50% or greater: "Cc1ccc2c(c1)N(C)/C(=C/c1cccc[n+]1C)S2" MET

Identify whether the reported inhibition of the following compound is 50% or greater: "Cc1cc(C(=O)N/N=C/c2ccc([N+](=O)[O-])o2)c(C)o1" MET

Identify whether the reported inhibition of the following compound is 50% or greater: "CC(=O)COc1ccc2c(-c3cccc([N+](=O)[O-])c3)cc(=O)oc2c1" MET

Identify whether the reported inhibition of the following compound is 50% or greater: O=C1NC(=O)C(c2ccc(F)cc2)N1 (stereo unspecified) NOT MET

Identify whether the reported inhibition of the following compound is 50% or greater: "O=C(CSc1nc2sc3c(c2c(=O)n1-c1ccccc1)CCCC3)NCc1ccco1" NOT MET

Identify whether the reported inhibition of the following compound is 50% or greater: "Cc1csc(=O)n1CCC(=O)OCC(=O)Nc1ccc(N2CCOCC2)cc1" MET

Identify whether the reported inhibition of the following compound is 50% or greater: "Nc1c2ccccc2nc2ccccc12" MET

Identify whether the reported inhibition of the following compound is 50% or greater: "Cc1ccc(C(=O)C[n+]2cc(-c3ccc(C)cc3)n3c2CCCCC3)cc1" MET

Identify whether the reported inhibition of the following compound is 50% or greater: "CCCc1cc(=O)oc2cc3oc(C)c(C)c3cc12" MET

Identify whether the reported inhibition of the following compound is 50% or greater: CC1(c2ccc3ccccc3c2)NC(=O)N(CC(=O)N2CCN(Cc3ccc(C#N)cc3)CC2)C1=O (stereo unspecified) MET

Identify whether the reported inhibition of the following compound is 50% or greater: Cc1cc(Br)ccc1NC(=O)CN1C(=O)C2CC=CCC2C1=O (stereo unspecified) MET

Identify whether the reported inhibition of the following compound is 50% or greater: "CCn1c(SCC(=O)Nc2ccc(N3CCOCC3)cc2)nnc1-c1ccco1" MET

Identify whether the reported inhibition of the following compound is 50% or greater: "COc1ccc(C2=Nn3c([n+](C)c4ccccc43)SC2)cc1" MET

Identify whether the reported inhibition of the following compound is 50% or greater: Cc1cccc2sc(NNC(=O)c3ccc(S(=O)(=O)N4CC(C)CC(C)C4)cc3)nc12 (stereo unspecified) NOT MET

Identify whether the reported inhibition of the following compound is 50% or greater: "CS(=O)(=O)c1ccc(Cl)c(NC(=O)Nc2ccccc2)c1" NOT MET

---

assay: VP16 transactivation inhibitors, counter-screen for SRC1 inhibitor project, cell-based, luminescence, high throughput (AID 588824); conditions: cell-based VP16 transactivation luciferase luminescence; at 3.6 µM; hits give high values
quantityName: inhibition (%)
Give the quantity in %, number only.

Example cases with answers are listed next.
COc1ccc(C=C2CS(=O)(=O)CC(=Cc3ccc(OC)cc3)C2=O)cc1 :: 55.9
COc1ccc(Nc2nc(-c3cccs3)nc3ccccc23)cc1S(=O)(=O)N1CCOCC1 :: -9.26
c1ccc(-c2cccc(-c3ccccn3)n2)nc1 :: 32
CCCCCOC(=O)C1=C(C)NC(=O)NC1c1ccc([N+](=O)[O-])cc1 (stereo unspecified) :: 2.27
CC(=O)N1CN(C2CCCC2)Cc2c1sc1c2CCCC1 :: 14.4

With those in mind, consider the next compound.
Could you share which inhibition value was measured for "Oc1ccc(Nc2nc(N3CCCC3)c3ccccc3n2)cc1" ? 40.2

---

tested on: transactivating tegument protein VP16 (Human herpesvirus 1), Gal4-VP16 luciferase reporter; assay: VP16 transactivation inhibitors, counter-screen for SRC3 inhibitor project, cell-based, luminescence, high throughput (AID 588794); details: mammalian cells, VP16-driven luciferase reporter luminescence; at 3.6 µM; hits give high values
quantityName: inhibition (%)
Give the quantity in %, number only.

Example cases with answers are listed next.
Cc1cc(C)c2c(N)c(C(=O)Nc3ncc(C)s3)sc2n1 :: 34.4
COCC(C)n1c(C)cc(C(=O)COC(=O)c2cc(=O)[nH]c3ccccc23)c1C (stereo not given) :: -15.5
Cc1ccc(-n2c(Cl)c(Cl)nc(Cl)c2=O)cc1 :: 17.9
CCOc1ccc(CNC(=O)C2Cc3cc(S(=O)(=O)N4CCCC4)ccc3N2C(C)=O)cc1 (stereo not given) :: 8.25

With those in mind, consider the next compound.
Could you share which inhibition value was measured for "CCCOc1ccc(/C=N/Nc2ccccc2[N+](=O)[O-])c(O)c1" ? 5
